Molecular target: T1, cynomolgus/human MAdCAM chimera (on CHO cells) (cynomolgus/human)
T1 chain: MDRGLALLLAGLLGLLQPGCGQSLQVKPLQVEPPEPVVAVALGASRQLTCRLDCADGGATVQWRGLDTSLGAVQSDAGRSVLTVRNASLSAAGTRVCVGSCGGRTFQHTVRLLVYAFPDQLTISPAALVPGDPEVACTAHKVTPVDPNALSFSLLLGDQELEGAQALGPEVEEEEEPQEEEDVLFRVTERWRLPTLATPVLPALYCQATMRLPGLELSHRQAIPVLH
Assay: competition, JY cell adhesion to CHO
quantity-kind: IC50 (µg/mL)
# output: bare number, implied unit µg/mL

Asked: Return the recorded IC50 value; entry: 7.16.6 (antibody, V domains shown) VH: QVQLVQSGAEVKKPGASVKVSCKASGYTFTSYGINWVRQAPGQGLEWMGWISVYSGNTNYAQKVQGRVTMTADTSTSTAYMDLRSLRSDDTAVYYCAREGSSSSGDYYYGMDVWGQGTTVTVSS VL: DIVMTQTPLSLSVTPGQPASISCKSSQSLLHTDGTTYLYWYLQKPGQPPQLLIYEVSNRFSGVPDRFSGSGSGTDFTLKISRVEAEDVGIYYCMQNIQLPWTFGQGTKVEIKR
Given back: 0.72

Asked: Return the recorded IC50 value; entry: 7.26.4 (antibody, V domains shown) VH: QVQLVQSGAEVKKPGASVKVSCEASGYTFTSYGIDWVRQAPGQGLEWMGWISVYSGNTNYAQKLQGRVTMSTDTSTSTAYMELRSLRSDDTAVYYCAREGSSSSGDYYYGMDVWGQGTTVTVSS VL: DIVMTQTPLSLSVTPGQPASISCKSNQSLLYSDGKTYLFWYLQKPGQPPQLLIYEVSNRFSGVPDRFSGSGSGTDFTLKISRVEAEDVGVYYCMQSIQLPWTFGQGTKVEIKR
Given back: 0.96

Asked: Return the recorded IC50 value; entry: 6.22.2 (antibody, V domains shown) VH: QVQLVESGGGVVQPGRSLRLSCAASGHTFSSDGMHWVRQAPGKGLEWVAIIWYDGSNKYYADSVKGRFTISRDNSKNTLYLQMNSLRAEDTAVYYCARDPGYYYGMDVWGQGTTVTVSS VL: EIVLTQSPDFQSVTPKEKVTITCRASQRIGSSLHWYQQKPDQSPKLLIKYASQSFSGVPSRFSGSGSGTNFTLTINGLEAEDAATYYCHQSGRLPLTFGGGTKVEIKR
Given back: 0.83

Asked: Return the recorded IC50 value; entry: 6.34.2 (antibody, V domains shown) VH: QVQLVESGGGVVQPGRSLRLSCAASGFTFSSYGMHWVRQAPGKGLEWVAVISNDGNNKYYADSVKGRFTISRDNSKNTLYLQMNSLSAEDTAVYYCARDSTAITYYYYGMDVWGQGTTVTVSS VL: MDMRVPAQLLGLLLLWLRGARCDIQMTQSPSSLSASVGDRVTITCRASQNISSYLNWFQQKPGKAPKLLIYAASGLKRGVPSRFSGSGSGTDFTLTIRTLQPDDFATYSCHQSYSLPFTFGPGTKVDIKR
Given back: 0.47

Asked: Return the recorded IC50 value; entry: 6.77.1 (antibody, V domains shown) VH: EVQLVESGGGLVKPGGSLRLSCAASGFTFSSYSMNWVRQAPGKGLEWVSSISSSSSYIYYADSVKGRFTISRDNAKNSLYLQMNSLRAEDTAVYYCARDGYSSGWSYYYYYGMDVWGQGTTVTVSS VL: DIVMTQTPLSLSVTPGQPASISCNSSQSLLLSDGKTYLNWYLQKPGQPPQLLIYEVSNRFSGVPDRFSGSGSGTDFTLKISRVEAEDVGVYSCMQSIQLMCSFGQGTKLEIKR
Given back: 0.64

Asked: Return the recorded IC50 value; entry: 6.14.2 (antibody, V domains shown) VH: EVQLLESGGGLVQPGGSLRLSCAASGLTFNNSAMTWVRQAPGKGLEWVSTTSGSGGTTYYADSVKGRFTISRDSPKNTLYLQMNSLRAEDTAVYYCAARGYSYGTTPYEYWGQGTLVTVSS VL: MDMRVPAQLLGLLLLWLRGARCDIQMTQSPSSLSASVGDRVTITCRASRSISSYLNWYQQKPGKAPKVLIFFVSSLQSGVPSRFSGSGSGTDFTLTISSLQPEDFATYYCQQNYIPPITFGQGTRLEIRR
Given back: 0.53

This collection of values is drawn from patent US20050232917.
